Source listed as patent US20240132484A1.

system: cells (nuclei count); conditions: 50 μM; toxicity data; 100=DMSO control
testReadout: Relative cell count to DMSO controls, Average 50 μM

compound	recordedValue
CN(C)CCN(Cc1ccsc1)Cc1ccc(CO)o1 [SILCS9]	60.67
CC1=C(C(=O)NCc2ccccc2)C(c2ccc(C)o2)NC(=O)N1 (stereo not drawn) [SILCS69]	79.5
CN(C)CCN(Cc1ccccc1)Cc1cc(C#CCO)cs1 [SILCS5]	75.59
COc1ccc(-c2[nH]ncc2C(=O)NCC2CCCCC2)cc1OC [SILCS52]	81.04
CN(C)CCN(Cc1cocn1)Cc1cccs1 [SILCS35]	60.5
CN(C)CCCN(Cc1cccs1)C(=O)c1cccs1 [SILCS40]	117.52
CCN(CC)CCN(Cc1ccccn1)Cc1ccc(C)o1 [SILCS36]	63.21
CCN(CC)CCN(Cc1ccc(C)o1)Cc1cccs1 [SILCS24]	76.48
OC(COc1c(CNCCc2ccccc2F)cccc1N1CCNCC1)CN1CCCC1 (stereo not drawn) [SILCS22]	68.81
COc1ccc(CNCCc2ccccc2F)c(OCC(O)CN2CCCC2)c1 (racemic) [SILCS43]	0.01
CCN(CC)CCN(Cc1cc(C)c(Br)s1)Cc1cc(C)c(Br)s1 [SILCS39]	46.35
CCN(CC)CCN(Cc1ccccn1)C(=O)c1cccs1 [SILCS37]	75.29
Cc1ccc(CN(CCN(C)C)Cc2ccccc2)o1 [SILCS11]	80.38
COC(=O)c1csc(CN(CCN(C)C)Cc2ccsc2)c1 [SILCS31]	96.45
CC1=C(C(=O)NC2CCCCCC2)C(c2cccs2)NC(=O)N1 (stereo not drawn) [SILCS61]	104.46
CN(C)CCN(Cc1ccsc1)Cc1cccc(-c2ccsc2)c1 [SILCS20]	7.37
COCC1=C(C(=O)NCC2CCC2)C(c2cccs2)NC(=O)N1 (stereo not drawn) [SILCS56]	89.59
Cc1cc(CN(CCN(C)C)Cc2ccncc2)sc1Br [SILCS14]	16.8
COc1ccc(CNCCc2ccccc2F)c(OCC(O)CN2CCN(C)CC2)c1 (stereo not drawn) [SILCS45]	125.46
CCN(CC)CCN(Cc1ccccc1)Cc1ccccn1 [SILCS33]	59.2
CC1=C(C(=O)NCC2CCCCC2)C(c2cc(C)c(Br)s2)NC(=O)N1 (stereo not drawn) [SILCS68]	91.82
COc1ccc(-c2[nH]ncc2C(=O)NCC2CCC2)cc1OC [SILCS54]	88.29
CCOc1cccc(CNCCc2ccccc2F)c1OCC(O)CN1CCN(C)CC1 (stereo not drawn) [SILCS3]	86.97
Cc1ccc(CN(CCN(C)C)Cc2ccc(C)s2)o1 [SILCS7]	73.73
